Molecular target: T1, GDF15 mutant W228R (wrist region), albumin fusion (human, UniProt Q99988 195-308)
T1 construct: not shown: albumin fusion partner
T1 chain: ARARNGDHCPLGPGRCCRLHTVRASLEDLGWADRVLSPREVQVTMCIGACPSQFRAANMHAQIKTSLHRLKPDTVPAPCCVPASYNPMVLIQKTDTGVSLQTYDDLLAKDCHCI
Assay: direct ELISA on coated albumin-fusion GDF15 variant

Binder	binding result
ABGDF15-F (antibody, human IgG1, lambda, V domains shown, captured through anti-human Fc in the Biacore assay) VH: EVQLVQSGAEVKKPGESLKISCKGSGYSFTSYWIGWVRQMPGKGLEWMGVIDPSGSYTIYSPSFQGQVTISADKSISTAYLQWSSLKASDTAMYYCARYGRYGTYFDYWGQGTLVTVSS VL: QSVLTQPPSVSGAPGQRVTISCSGSSSNIGVLYVNWYQQLPGTAPKLLIYSNDNRPSGVPDRFSGSKSGTSASLAITGLQAEDEADYYCQSWDSSSNYVFGGGTKLTVLG	binds
